TARGET_OR_SYSTEM: PDGFRβ kinase, purified cytoplasmic domain PDGFR-b protein (Homo sapiens (Human))
Reported pIC50 is given for each of the following molecules.
Lab note: report pIC50 as minus log10 of the concentration in molar units, number only.

Consider the reported pIC50 for these molecules:
- MOLECULE: "Cc1ccc(NC(=O)c2cccc(N3CCc4nc(N)ncc4C3)c2)cc1 [Example 6]"
  pIC50: 7.05
- MOLECULE: "Cc1ccc(C(=O)Nc2cccc(C(C)C)c2)cc1N1CCc2nc(N)ncc2C1 [Example 149]"
  pIC50: 7.52
- MOLECULE: "CC(C)c1cccc(NC(=O)c2cccc(N3CCc4nc(N)ncc4C3)c2)c1 [Example 2]"
  pIC50: 7.27

Item Cc1cccc(NC(=O)Nc2ccc(N3CCc4ccncc4C3)c(C)c2)c1 [Example 166] was tested on PDGFRβ kinase, purified cytoplasmic domain PDGFR-b protein (Homo sapiens (Human)); the reported pIC50 is 7.44

Item Cc1cccc(NC(=O)c2cccc(N3CCc4nc(N)ncc4C3)c2)c1 [Example 3] was tested on PDGFRβ kinase, purified cytoplasmic domain PDGFR-b protein (Homo sapiens (Human)); the reported pIC50 is 6.94

Item Cc1cccc(NC(=O)Nc2ccc(N3CCc4ccncc4C3)cc2C)c1 [Example 167] was tested on PDGFRβ kinase, purified cytoplasmic domain PDGFR-b protein (Homo sapiens (Human)); the reported pIC50 is 5.98

---

TARGET_OR_SYSTEM: PDGFRβ kinase, purified cytoplasmic domain PDGFR-b protein (Homo sapiens (Human), UniProt P09619)
Sequence (P09619 554-1106): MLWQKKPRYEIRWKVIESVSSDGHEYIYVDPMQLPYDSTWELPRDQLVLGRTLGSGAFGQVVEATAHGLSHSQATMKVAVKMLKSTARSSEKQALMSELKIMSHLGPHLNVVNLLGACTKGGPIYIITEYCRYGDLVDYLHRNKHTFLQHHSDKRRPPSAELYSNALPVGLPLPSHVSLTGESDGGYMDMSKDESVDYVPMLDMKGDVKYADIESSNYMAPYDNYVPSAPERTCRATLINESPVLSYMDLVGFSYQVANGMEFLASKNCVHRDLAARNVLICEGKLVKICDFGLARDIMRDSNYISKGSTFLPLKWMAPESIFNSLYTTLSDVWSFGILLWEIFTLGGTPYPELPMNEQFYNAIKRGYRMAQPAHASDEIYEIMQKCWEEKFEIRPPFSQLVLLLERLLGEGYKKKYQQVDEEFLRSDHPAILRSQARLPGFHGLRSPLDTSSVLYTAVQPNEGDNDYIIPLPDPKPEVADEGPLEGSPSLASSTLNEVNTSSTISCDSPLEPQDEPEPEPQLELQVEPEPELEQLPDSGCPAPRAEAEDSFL
REPORTED_PROPERTY: pIC50
Lab note: report pIC50 as minus log10 of the concentration in molar units, number only.

Consider the reported pIC50 for these compounds:
- COMPOUND: "COC(=O)c1cncc2c1CCN(c1cccc(C(=O)Nc3cccc(C(C)C)c3)c1)C2 [Example 169]"
  RECORDED_RESULT: 7.82
- COMPOUND: "Nc1ncc2c(n1)CCN(c1cccc(C(=O)Nc3ccc(F)c(C(F)(F)F)c3)c1)C2 [Example 176]"
  RECORDED_RESULT: 7.21
- COMPOUND: "CC(C)c1cccc(NC(=O)c2cccc(N3CCc4ccncc4C3)c2)c1 [Example 168]"
  RECORDED_RESULT: 7.40
- COMPOUND: "Nc1ncc2c(n1)CCN(c1cccc(C(=O)NCC3CCCCC3)c1)C2 [Example 18]"
  RECORDED_RESULT: 6.22
- COMPOUND: "Cc1cccc(NC(=O)Nc2ccc(N3CCc4ccncc4C3)cc2)c1 [Example 163]"
  RECORDED_RESULT: 5.81

Measured pIC50 of CC(C)(C)c1ccc(NC(=O)c2cccc(N3CCc4nc(N)ncc4C3)c2)cc1 [Example 4] : 6.96

Measured pIC50 of Cc1cc(C(=O)Nc2cccc(C(F)(F)F)c2)cc(N2CCc3nc(N)ncc3C2)c1 [Example 148] : 6.56

---

Reported IC50 is given for each of the following compounds.
TARGET_OR_SYSTEM: PDGFRβ kinase, purified cytoplasmic domain PDGFR-b protein (Homo sapiens (Human), UniProt P09619)
METHOD: PDGFRβ Kinase Assay
Format: biochemical
RUN_CONDITIONS: 36 μM ATP, poly-Glu-Tyr (4:1) substrate, 60 minute incubation at 30° C., ELISA read at 492 nm

Consider the reported IC50 for these compounds:
- COMPOUND: "O=C(Nc1ccc(N2CCc3ccncc3C2)cc1)c1cccc(C(F)(F)F)c1 [Example 162]"
  IC50: "> 10 µM"
- COMPOUND: "O=C(Nc1ccccc1)Nc1ccc(N2CCc3ccncc3C2)cc1 [Example 164]"
  IC50: "> 10 µM"
- COMPOUND: "Cc1ccc(NC(=O)Nc2ccc(N3CCc4ccncc4C3)cc2)cc1 [Example 165]"
  IC50: "> 1 µM"
- COMPOUND: "Nc1ncc2c(n1)CCN(c1cccc(C(=O)NC3CCCC3)c1)C2 [Example 19]"
  IC50: "> 10 µM"

Proceeding to the next compound to report its IC50.
Measured IC50 of CCCCNC(=O)c1cccc(N2CCc3nc(N)ncc3C2)c1 [Example 16] : > 10 µM
